other reference
Test System: Pfs48/45 in its native configuration on the female gamete surface membrane (Plasmodium falciparum NF54 (endogenous in gametes))
Metric: other

binder="RUPA-54 (hIgG1) (antibody, V domains shown) VH: QVQLVESGGGVVQPGRSLRLSCTASGFTFRSYGIHWVRQAPGKGLQWVAFISYDGRNKYYADSVKGRFTISRDNSKNTLYLQMSGLRADDTAVYYCAKDSDNDCTATSCYTVSWGQGTLVTVSS VL: SYELTQPPSVSVSPGQTARITCSGDALPKKYAYWYQQKSGQAPVLVIYEDKKRPSGIPERFSGSSSGTMATLTISGAQVEDEADYYCYSTDSRTDHGGIFGGGTKLTVL" metric=other value_observed="> 80 % TRA"
binder="RUPA-100 (hIgG1) (antibody, V domains shown) VH: QVQLVESGGGVVQPGRSLRLSCAASGFSFSHYGMHWVRQAPGKGLEWVAVISYDGNYKYYGDSVKGRFTISRDNFKNTLYLQMNSLRPEDTAVYYCAKGKAHSCVSTSCYTDFWGQGTLVTVPS VL: SYELTQPPSVSVSPGQTARITCSGDALPKKYAYWYQQKSGQAPVLVIYEDSKRPSGIPERFSGSSSGTMATLTISGAQVEDEGDYYCYSTDSSYNHRGVFGGGTKLTVL" metric=other value_observed="> 80 % TRA"
binder="RUPA-50 (hIgG1) (antibody, V domains shown) VH: QVHLVESGGGVVQPGRSLRLSCAASGFTFRSYGMHWVRRVPGKGLEWVATISYDETFKDYPDSVKGRFTISRDNSKNTLFLQMNSLRPADTAVYYCAKDRAHSMHYFEYWGRGTLVTVSS VL: SYELTQPPSVSVSPGQTARLTCSGDALPKKFAYWYQLKSGQAPVLVIYEDSKRPSGIPERFSGSSSGTTATLTISGAQVEDEADYYCYSRDGSGDQKNIFGGGTKLTVL" metric=other value_observed="> 80 % TRA"
binder="RUPA-160 (hIgG1) (antibody, V domains shown) VH: QVQLVQSGAEVKKPGASVKASCKASGYTFDNFDIIWARQATGQGLEWMGWMNPNTGKKGYAQNLKDRVTMTRDSSISTAYLELSSLRSEDTAVYYCVRAVGSYYGSGGWFDPWGQGTLVTVSS VL: QSVLTQPPSASGTPGQRVTIACSGSSSNIGGNNVKWYQQLPGTAPKLVIYNNDERPPGVPDRVSGSKSGTSASLAISGVQSEDEADYYCATWDDSMKREVFGGGTKLTVL" metric=other value_observed="80 % TRA"
binder="RUPA-29 (hIgG1) (antibody, V domains shown) VH: QVHLVESGGGVVQPGRSLRLSCAASGFTFRSYGMHWVRLAPGKGLEWVTAIWYDGSKKHFADSVKGRFTISRDNSKNTLYLQMSSLRVEDTAVYYCARDFAHGAFYPVDWGRGTLVTVSS VL: SYELTQPPSVSVSPGQTARITCSGDALPKKHAYWYQQKSGQAPVLVIYDDSKRPSGIPERFSGSSSGTMATLSISGAQVEDEAAYYCYSSDTSANYWVFGGGTKLTVL" metric=other value_observed="> 80 % TRA"
